# FSC (Forward Scatter Count) values compiled below
target: ABCB1 (P-glycoprotein) in Colo 320 colonic adenocarcinoma cells (Homo sapiens); assay: ABCB1 inhibition, rhodamine 123 accumulation by flow cytometry; conditions: 2 µM
Returns: the value as a bare number; no unit string appended.

Examples from the recorded data:
compound	FSC (Forward Scatter Count)
CC(=O)C[Se]C(=O)c1cccs1	1866
CC(=O)C[Se]C(=O)c1ccccc1F [K2, Se-(2-Oxopropyl) 2-Fluorobenzoselenoate]	1945
CC(=O)C[Se]C(=O)c1cccc(C(F)(F)F)c1	1949

*Q* Returns the measured FSC (Forward Scatter Count) for the input compound. Input: CC(=O)C[Se]C(=O)c1cc(F)c(F)cc1F
*A* 1990

*Q* Also, CC(=O)C[Se]C(=O)c1ccc(C(C)(C)C)cc1 please.
*A* 1920

*Q* Also, CC(=O)C[Se]C(=O)c1ccc(F)c(Cl)c1 please.
*A* 1833

*Q* Also, CC(=O)C[Se]C(=O)c1ccc(Br)cc1 [K3, Se-(2-Oxopropyl) 4-Bromobenzoselenoate] please.
*A* 2040

*Q* Also, CC(=O)C[Se]C(=O)c1ccccc1C(F)(F)F please.
*A* 1830

---

Molecular target: ABCB1 (P-glycoprotein) in Colo 320 colonic adenocarcinoma cells (Homo sapiens, UniProt P08183)
Sequence (P08183 whole entry): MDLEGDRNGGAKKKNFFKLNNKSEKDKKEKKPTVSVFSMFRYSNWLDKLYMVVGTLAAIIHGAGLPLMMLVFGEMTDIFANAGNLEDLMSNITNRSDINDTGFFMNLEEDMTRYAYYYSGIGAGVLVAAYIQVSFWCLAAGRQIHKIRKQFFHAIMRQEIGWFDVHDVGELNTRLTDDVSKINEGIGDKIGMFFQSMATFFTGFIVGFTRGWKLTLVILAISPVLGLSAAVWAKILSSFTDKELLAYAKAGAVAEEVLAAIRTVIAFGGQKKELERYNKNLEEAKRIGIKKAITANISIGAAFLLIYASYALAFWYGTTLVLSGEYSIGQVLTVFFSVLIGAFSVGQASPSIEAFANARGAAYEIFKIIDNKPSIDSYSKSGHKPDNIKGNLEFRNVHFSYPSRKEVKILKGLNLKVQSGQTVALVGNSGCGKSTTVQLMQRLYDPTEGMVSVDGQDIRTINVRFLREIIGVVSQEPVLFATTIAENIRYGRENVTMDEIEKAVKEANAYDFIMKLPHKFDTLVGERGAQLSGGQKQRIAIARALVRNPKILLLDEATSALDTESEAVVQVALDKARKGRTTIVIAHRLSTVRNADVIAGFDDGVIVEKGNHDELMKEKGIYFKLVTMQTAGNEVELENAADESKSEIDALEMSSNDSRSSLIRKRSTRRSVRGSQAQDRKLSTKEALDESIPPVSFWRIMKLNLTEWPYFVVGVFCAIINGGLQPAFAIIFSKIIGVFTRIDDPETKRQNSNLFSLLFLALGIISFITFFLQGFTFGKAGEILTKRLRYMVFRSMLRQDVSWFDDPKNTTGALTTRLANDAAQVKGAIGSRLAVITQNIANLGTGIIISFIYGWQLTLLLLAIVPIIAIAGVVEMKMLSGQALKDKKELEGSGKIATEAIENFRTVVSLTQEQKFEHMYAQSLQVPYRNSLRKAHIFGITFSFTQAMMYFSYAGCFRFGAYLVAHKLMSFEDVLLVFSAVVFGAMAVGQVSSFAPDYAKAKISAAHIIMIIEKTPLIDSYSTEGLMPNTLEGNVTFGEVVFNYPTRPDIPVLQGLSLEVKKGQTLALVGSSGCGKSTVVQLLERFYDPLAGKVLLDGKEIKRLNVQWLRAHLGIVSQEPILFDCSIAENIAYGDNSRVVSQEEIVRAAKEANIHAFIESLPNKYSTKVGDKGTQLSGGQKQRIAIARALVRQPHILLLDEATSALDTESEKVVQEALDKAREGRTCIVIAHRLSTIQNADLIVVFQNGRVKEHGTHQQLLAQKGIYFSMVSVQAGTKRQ
Experiment: ABCB1 inhibition, rhodamine 123 accumulation by flow cytometry
Conditions: 0.2 µM
Procedure: The inhibition of the ABCB1 multidrug efflux pump ABCB1 by the tested compounds was evaluated using flow cytometry, measuring the retention of rhodamine 123 by ABCB1 (P-glycoprotein) in Colo 320 colonic adenocarcinoma cells. […] The fluorescence of the gated cell population was measured with a Partec CyFlow® flow cytometer (Partec, Münster, Germany). The percentage of the mean fluorescence intensity was calculated for the treated MDR cells as compared with the untreated cells. […]
recorded_metric: FSC (Forward Scatter Count)
Returns: the value as a bare number; no unit string appended.

compound	FSC (Forward Scatter Count)
CC(=O)C[Se]C(=O)c1cccs1 [K1]	2144
CC(=O)C[Se]C(=O)c1ccc(F)c(Cl)c1 [K6]	1996
CC(=O)C[Se]C(=O)c1ccc(Br)cc1 [K3, Se-(2-Oxopropyl) 4-Bromobenzoselenoate]	1706
COc1cc2c(cc1OC)CN(CCc1ccc(NC(=O)c3cc(OC)c(OC)cc3NC(=O)c3cnc4ccccc4c3)cc1)CC2 [Tariquidar, reference compound]	1957
CC(=O)C[Se]C(=O)c1ccccc1F [K2, Se-(2-Oxopropyl) 2-Fluorobenzoselenoate]	1916
CC(=O)C[Se]C(=O)c1ccccc1C(F)(F)F [K4]	1808
CC(=O)C[Se]C(=O)c1ccc(C(C)(C)C)cc1 [K7]	1889
CC(=O)C[Se]C(=O)c1cccc(C(F)(F)F)c1 [K5]	1982

*Q* Returns the measured FSC (Forward Scatter Count) for the input compound. Input: CC(=O)C[Se]C(=O)c1cc(F)c(F)cc1F [K8]
*A* 1804

---

Target: ABCB1 (P-glycoprotein) in Colo 320 colonic adenocarcinoma cells (Homo sapiens)
Experiment: ABCB1 inhibition, rhodamine 123 accumulation by flow cytometry
Conditions: 0.2 µM
Protocol: The inhibition of the ABCB1 multidrug efflux pump ABCB1 by the tested compounds was evaluated using flow cytometry, measuring the retention of rhodamine 123 by ABCB1 (P-glycoprotein) in Colo 320 colonic adenocarcinoma cells. […] The fluorescence of the gated cell population was measured with a Partec CyFlow® flow cytometer (Partec, Münster, Germany). The percentage of the mean fluorescence intensity was calculated for the treated MDR cells as compared with the untreated cells. […]
Use 1000 as the dividing line for SSC (Side Scatter Count), with the line itself on the true (1) side and lower values as false (0).

molecule	assigned_category
COc1cc2c(cc1OC)CN(CCc1ccc(NC(=O)c3cc(OC)c(OC)cc3NC(=O)c3cnc4ccccc4c3)cc1)CC2 [Tariquidar, reference compound]	true (1)
CC(=O)C[Se]C(=O)c1ccc(F)c(Cl)c1	false (0)
CC(=O)C[Se]C(=O)c1ccccc1F [K2, Se-(2-Oxopropyl) 2-Fluorobenzoselenoate]	true (1)

// next entry
*Q* Is reported SSC (Side Scatter Count) greater than or equal to 1000 here: CC(=O)C[Se]C(=O)c1cccc(C(F)(F)F)c1
*A* true (1)
